kon listing for selected binders.
system_name: T1, mouse serum albumin (mouse, UniProt P07724 25-608)
T1 construct: also called MSA
procedure_details: SPR (Bruker Sierra SPR-32), MSA on chip, DARPin as analyte, 1:1 Langmuir fit
outcome_measure: kon

| binder | outcome_measure | result |
| --- | --- | --- |
| MAM279 (two domain ankyrin repeat protein, N-terminal His6-TEV tag) (designed binder, Cleavage of the tag is not reported; also called 2D DARPin) MRGSHHHHHHENLYFQDLGKKLLEAARAGQDDEVRELLKAGADVNAKDYFSHTPLHLAARNGHLKIVEVLLKAGADVNAKDFAGKTPLHLAADAGHLEIVEVLLKAGADVNAQDIFGKTPADIAADAGHEDIAEVLQKAAGSPTPTPTTPTPTPTTPTPTPTGSDLGKKLLAAAAQGQDDEVRELLKAGANVNAKDLFGYTPLHLAAWRGHLEIVEVLLKAGADVNAKDAAGETPLHLAAWFGHLEIVEVLLKAGADVNAQDLQGKTPADLAAKEGHEDIAEVLQKAA | kon | 91200 M⁻¹ s⁻¹ |
| MAM283 (two domain ankyrin repeat protein, N-terminal His6-TEV tag) (designed binder, also called 2D DARPin) MRGSHHHHHHENLYFQDLGKKLLEAARAGQDDEVRELLKAGADVNAKDYFSHTPLHLAARNGHLKIVEVLLKAGADVNAKDFAGKTPLHLAADAGHLEIVEVLLKAGADVNAQDIFGKTPADIAADAGHEDIAEVLQKAAGSPTPTPTTPTPTPTTPTPTPTGSDLGKKLLAAAADGQDDEVRELLQAGADVNAKDLFGYTPLHLAAWRGHLEIVEVLLEAGADVNAKDAAGETPLHLAAWFGHLEIVEVLLEAGADVNAQDVQGKTPADLAAKEGHEDIAEVLQQAA | kon | 74700 M⁻¹ s⁻¹ |
| MAM282 (two domain ankyrin repeat protein, N-terminal His6-TEV tag) (designed binder, also called 2D DARPin) MRGSHHHHHHENLYFQDLGKKLLEAARAGQDDEVRELLKAGADVNAKDYFSHTPLHLAARNGHLKIVEVLLKAGADVNAKDFAGKTPLHLAADAGHLEIVEVLLKAGADVNAQDIFGKTPADIAADAGHEDIAEVLQKAAGSPTPTPTTPTPTPTTPTPTPTGSDLGKKLLAAAREGQDDEVRELLKAGADVNAKDIWGQTPLHIAAWFGHLEIVEVLLKAGADVNAKDQTGHTPLHLAAKFGHLEIVEVLLKAGADVNAQDLLGRTPADLAAEEGHEDIAEVLQKAA | kon | 106000 M⁻¹ s⁻¹ |
| MAM160 (two domain ankyrin repeat protein, N-terminal His6-TEV tag) (designed binder, also called 2D DARPin) MRGSHHHHHHENLYFQDLGKKLLEAARAGQDDEVRELLKAGADVNAKDYFSHTPLHLAARNGHLKIVEVLLKAGADVNAKDFAGKTPLHLAADAGHLEIVEVLLKAGADVNAQDIFGKTPADIAADAGHEDIAEVLQKAAGSPTPTPTTPTPTPTTPTPTPTGSDLGTKLLSAAADGQDDEVRELLQAGADVNAKDLFGYTPLHLAAWRGHLEIVEVLLEAGADVNAKDAAGLTPLHLAAWFGHLEIVEVLLEAGADVNAQDVQGVTPADLAAKEGHEDIAEVLQQAA | kon | 80400 M⁻¹ s⁻¹ |
